measuredOn: Histone deacetylase 2 (Homo sapiens, UniProt Q92769)
Sequence (Q92769 whole entry): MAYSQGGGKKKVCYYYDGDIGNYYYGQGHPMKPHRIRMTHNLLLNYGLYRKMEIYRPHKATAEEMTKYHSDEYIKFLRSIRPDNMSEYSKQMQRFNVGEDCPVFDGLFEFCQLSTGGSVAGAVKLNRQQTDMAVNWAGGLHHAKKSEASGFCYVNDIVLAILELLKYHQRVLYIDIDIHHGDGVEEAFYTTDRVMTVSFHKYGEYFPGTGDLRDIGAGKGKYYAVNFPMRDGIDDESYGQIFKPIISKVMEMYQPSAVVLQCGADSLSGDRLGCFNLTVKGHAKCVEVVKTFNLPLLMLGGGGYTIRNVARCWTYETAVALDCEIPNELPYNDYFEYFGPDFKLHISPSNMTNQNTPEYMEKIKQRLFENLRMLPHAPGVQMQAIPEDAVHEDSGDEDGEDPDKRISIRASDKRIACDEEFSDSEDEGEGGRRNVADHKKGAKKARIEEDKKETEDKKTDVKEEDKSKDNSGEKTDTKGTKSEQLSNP
procedureSummary: Inhibition of full-length recombinant human C-terminal GST tagged HDAC2 expressed in Sf9 insect cells using aminoluciferin peptide substrate at 100 nM preincubated for 3 hrs followed by substrate addition and measured after 30 mins by HDAC-Glo I/II chemiluminescence assay
recordedConditions: time 3.5 hrs
Measured inhibition values are reported for all entries that follow.
Answer in %, number only, no unit symbol.

- Nc1ccc(-c2ccc(F)cc2)cc1NC(=O)CCc1cn(CCc2cccc3ccccc23)nn1: 0
- COc1ccc(CCn2cc(C(=O)Nc3cc(-c4cccs4)ccc3N)nn2)cc1: 21
- Nc1ccc(-c2cccs2)cc1NC(=O)c1ccc(-c2cn(CCc3ccc(F)cc3)nn2)cc1: 14

Q: Output reported inhibition of the molecule Nc1ccc(-c2ccc(F)cc2)cc1NC(=O)CCc1cn(CCCCCc2ccccc2)nn1 on Histone deacetylase 2 (Homo sapiens, UniProt Q92769).
Ans: 5

Q: Output reported inhibition of the molecule Nc1ccc(-c2cccs2)cc1NC(=O)c1cccc(-c2cn(CCc3ccc(C(=O)O)cc3)nn2)c1 on Histone deacetylase 2 (Homo sapiens, UniProt Q92769).
Ans: 14

The reported measurements were obtained from ChEMBL document CHEMBL5390237.
